Molecular target: T1, huNectin4-His (human, UniProt Q96NY8 32-349)
T1 construct: Immobilized on the SPR chip; also called humanNectin4; human Nectin4; not shown: His tag
T1 sequence (looked up): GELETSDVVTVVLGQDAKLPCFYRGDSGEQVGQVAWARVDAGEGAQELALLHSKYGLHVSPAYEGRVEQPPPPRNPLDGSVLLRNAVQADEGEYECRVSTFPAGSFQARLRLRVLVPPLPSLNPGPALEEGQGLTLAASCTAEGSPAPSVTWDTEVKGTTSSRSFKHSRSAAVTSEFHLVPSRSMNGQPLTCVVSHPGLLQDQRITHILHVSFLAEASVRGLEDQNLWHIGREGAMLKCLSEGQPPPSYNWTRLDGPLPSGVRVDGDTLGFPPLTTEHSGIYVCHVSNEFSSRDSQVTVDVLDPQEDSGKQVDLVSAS
Assay: SPR, huNectin4-His immobilized, pH 7.4
property-measured: kon (M⁻¹ s⁻¹)
Could you give me the number in M⁻¹ s⁻¹? Just the number is fine.

Given the entry BAP-143-00-03 (antibody, V domains shown, Used as a conjugate with a linker payload (CAB ADC)) VH: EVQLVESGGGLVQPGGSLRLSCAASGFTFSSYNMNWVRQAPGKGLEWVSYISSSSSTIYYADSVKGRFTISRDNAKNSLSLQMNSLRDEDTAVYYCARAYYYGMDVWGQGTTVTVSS VL: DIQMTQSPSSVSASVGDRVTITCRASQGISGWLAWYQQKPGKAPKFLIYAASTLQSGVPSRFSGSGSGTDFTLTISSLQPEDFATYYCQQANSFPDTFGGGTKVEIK , report its measured kon. 1.31e+06

Given the entry BAP-143-00-05 (antibody, V domains shown, Used as a conjugate with a linker payload (CAB ADC)) VH: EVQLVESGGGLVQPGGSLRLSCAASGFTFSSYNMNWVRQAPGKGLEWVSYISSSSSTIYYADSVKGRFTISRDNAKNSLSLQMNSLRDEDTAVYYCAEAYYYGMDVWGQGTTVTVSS VL: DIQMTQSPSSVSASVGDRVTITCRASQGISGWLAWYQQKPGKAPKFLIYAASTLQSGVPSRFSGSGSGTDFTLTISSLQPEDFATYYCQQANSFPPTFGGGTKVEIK , report its measured kon. 1.22e+06

Given the entry BAP-143-00-04 (antibody, V domains shown, Used as a conjugate with a linker payload (CAB ADC)) VH: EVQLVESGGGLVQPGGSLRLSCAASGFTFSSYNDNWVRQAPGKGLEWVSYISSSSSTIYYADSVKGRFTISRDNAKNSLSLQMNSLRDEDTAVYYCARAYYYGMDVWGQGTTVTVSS VL: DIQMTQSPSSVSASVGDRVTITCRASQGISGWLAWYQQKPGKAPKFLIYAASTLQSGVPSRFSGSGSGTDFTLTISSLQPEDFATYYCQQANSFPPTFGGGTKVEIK , report its measured kon. 3.71e+06

Given the entry BAP-143-00-01 (antibody, V domains shown, Used as a conjugate with a linker payload (CAB ADC)) VH: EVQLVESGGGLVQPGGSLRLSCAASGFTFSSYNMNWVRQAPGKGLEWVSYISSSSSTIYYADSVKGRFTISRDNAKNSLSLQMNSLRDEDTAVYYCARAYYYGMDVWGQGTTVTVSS VL: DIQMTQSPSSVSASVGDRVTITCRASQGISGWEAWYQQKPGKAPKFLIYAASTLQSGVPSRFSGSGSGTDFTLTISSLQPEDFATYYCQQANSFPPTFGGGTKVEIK , report its measured kon. 686000

Given the entry BAP-143-00-06 (antibody, V domains shown, Used as a conjugate with a linker payload (CAB ADC)) VH: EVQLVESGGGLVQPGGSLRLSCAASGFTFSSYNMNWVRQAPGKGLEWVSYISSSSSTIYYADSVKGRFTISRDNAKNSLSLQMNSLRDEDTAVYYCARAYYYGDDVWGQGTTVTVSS VL: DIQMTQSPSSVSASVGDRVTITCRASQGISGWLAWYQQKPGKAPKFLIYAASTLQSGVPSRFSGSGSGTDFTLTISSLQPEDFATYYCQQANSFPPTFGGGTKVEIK , report its measured kon. 3.52e+06
